Record form. Attribute: viability at 28.5 h, 10 µM. Fill in for each entry.
Assay Text: in vitro
Condition Parameters: human, hela cells, % viability
Numbers only, in %.

See these solved cases before continuing.
• CCCN(C(=O)c1coc(COc2ccc3sc(C)nc3c2)n1)C1CC1 = 84
• COc1ccc(N2CCN(/C(=N/S(=O)(=O)c3ccccc3)Nc3nc(C)cc(C)n3)CC2)cc1 = 88.7
• CC(Oc1ccc2c(c1)OCO2)C(=O)NNC(=O)Nc1cccc(C(F)(F)F)c1 (centres unmarked) = 87.7
• Cc1nc(-c2ccc(CCNC(=O)c3cc(O)nc4ccccc34)s2)cs1 = 94.2
• COCc1cccc(Nc2ncnc3c2cnn3CCC#N)c1 = 83.2
• COc1ccc([N+](=O)[O-])c(N2CCOC3(CCN(C(=O)OCc4ccccc4)CC3)C2)n1 [CBK161117T] = 103
• Cc1n[nH]c(C)c1CC(=O)NC(Cc1ccsc1)c1ccccn1 (centres unmarked) = 105
• Cc1ccc(C(C)NC(=O)C2CCCN(S(C)(=O)=O)C2)c(C)c1 (centres unmarked) = 94.1

Hi, could you look up viability at 28.5 h, 10 µM for each item in my list?
1. CC(C)C(=O)Nc1ccc2nc(-c3ccoc3)c(-c3ccoc3)nc2c1
2. O=C(Cn1cc(Br)ccc1=O)NC1CCN(CCc2ccccc2)CC1
3. CCN(CC)CCNC(=O)c1ccc(NS(=O)(=O)c2cc(C(=O)O)ccc2OC)cc1

output:
[96.9, 99.5, 103]

----------
Assay Text: in vitro
Condition Parameters: human, hela cells, % viability
Result Type: viability at 28.5 h, 10 µM (%)
Answers are plain numbers, in %.

• COc1ccc(C(=O)O)cc1NC(=S)NC(=O)c1ccc(-c2ccccc2)cc1 = 99.5
• COC(=O)c1ccccc1NC(=O)c1c(C)c(-c2ccc(C)cc2)nc2ccccc12 = 94.9
• COc1ccc(C(=O)Nc2nc3ccc(S(C)(=O)=O)cc3s2)cc1 = 94.3
• CN(C)[C@@H]1CN(Cc2ccc(O)cc2)C[C@H]1c1cn(C)c2ccccc12 = 108
• Cc1ccc(C(=O)NCc2cccnc2)c(N2CCOCC2)n1 = 112
• CC1CCc2nc3ncn(CC(=O)NC4CC4)c(=O)c3cc2C1 (centres unmarked) = 88.3
• CCn1cc(C2CN(S(=O)(=O)c3ccc(F)c(C)c3)CCO2)cn1 (centres unmarked) = 91.3
• CC(C)[C@H](CO)Nc1nc(-c2cccc3ccccc23)cnc1N = 101
• COCCNC(=O)c1nn2c(c1Br)NC(c1cccs1)CC2C(F)(F)F (centres unmarked) = 84.5
• COc1ccc(-c2ccc(OC)cc2C(=O)Nc2ccc3c(c2)N(C)C(=O)CO3)cc1 = 92

Field: viability at 28.5 h, 10 µM. Fill in for each record below.
1. COc1ccc(C)cc1S(=O)(=O)N(CC(=O)O)c1ccc(Cl)c(Cl)c1
2. Cc1csc(C(Cc2cccs2)NC(=O)Cc2ccccn2)n1 (centres unmarked)

output:
[104, 94.3]

----------
Assay Text: in vitro
Condition Parameters: human, hela cells, % viability
Please respond with reported viability at 28.5 h, 10 µM for every item in the list.
One number for each entry, in %.

Examples with their reported viability at 28.5 h, 10 µM follow.
- O=C(Nc1ccc(S(=O)(=O)Nc2ccc(Cl)cc2)cc1)c1ccc(Cn2cc(Br)cn2)o1: 108
- CC(=O)C(C)Oc1ncn(-c2ccccc2)n1 (stereo not drawn): 101

Please give viability at 28.5 h, 10 µM, item by item, for the list that follows.
1. CCN(CC)C(=O)NC(c1ccccc1OC)c1nccn1C (stereo not drawn)
2. Oc1cccc(-c2nccnc2NCc2cccc(C(F)(F)F)c2)c1
3. CC(=O)Nc1cc2ccccc2nc1C1CCN(C(=O)C(C)C)CC1
4. Cc1nn2c3ccccc3nc2n1CCN1CCCCC1 [CBK278256C]
5. O=C(O)c1cccc(NC(=S)NC(=O)c2cccnc2)c1
6. COC(=O)Nc1nc2cc(F)c(Cl)cc2[nH]1
7. O=C(CN1CCN(c2ccc(C(F)(F)F)cn2)CC1)c1ccc2c(c1)OCCO2

output:
[80.8, 86.9, 83.7, 95.3, 94.5, 102, 98.3]

----------
Assay Text: in vitro
Condition Parameters: human, hela cells, % viability
Criterion: viability at 28.5 h, 10 µM strictly less than 90%. Met: satisfied. Not met: not satisfied.

// known answers, use as guide
* COc1ccc(-c2c[n+]3ccccc3c(=O)[nH]2)cc1 [CBK011078B] | not satisfied
* C[C@@H]1CN(Cc2ccco2)CCN1C(=O)c1nccc2ccccc12 [CBK285489] | not satisfied
* O=C(N/N=C/C=C/c1ccc([N+](=O)[O-])cc1)C(O)c1ccccc1 (stereo not shown) [CBK261373] | satisfied
* OCc1ccccc1CN1CCOCC1 [CBK264388C] | satisfied
* COCc1cccc(-c2ncc(OCCN3CCCC3=O)nc2N)c1 [CBK145110] | not satisfied
* OCC(O)CN1CCc2ccccc21 (stereo not shown) [CBK260896] | not satisfied
* O=C(Nc1ccc2oc(-c3cccnc3)nc2c1)c1cccc(OCc2ccccc2)c1 [CBK263420] | not satisfied
* CCN(CC(C)C#N)C(=O)c1nnn(-c2ccc3ncccc3c2)c1C (stereo not shown) [CBK305292] | satisfied

input: Does the reported viability at 28.5 h, 10 µM of the following compound sit strictly below 90%? Cc1cc2oc(=O)c3c(c2cc1C)CCN(C)C3 [CBK017803]
output: not satisfied

input: Quick check: does CC(Cn1cncn1)C(=O)NC(C)C1CC2CCC1C2 (stereo not shown) [CBK282089] have viability at 28.5 h, 10 µM under 90%?
output: not satisfied

input: Does this compound meet the criterion viability at 28.5 h, 10 µM < 90%? Cc1ccc([N+](=O)[O-])cc1S(=O)(=O)Nc1ccc(O)c(Sc2nc3ccccc3s2)c1 [CBK266936]
output: not satisfied

input: Consider the compound COc1ccc(C(=O)Nc2nc(-c3ccc(OC)cc3)cs2)cc1 [CBK287325] . Is its viability at 28.5 h, 10 µM strictly less than 90%?
output: not satisfied

input: Please let me know if CCNC(=O)N[C@@H]1C=C[C@@H](c2c(C)nn(CCC#N)c2C)C1 [CBK289171] shows viability at 28.5 h, 10 µM below 90%.
output: not satisfied

input: Quick check: viability at 28.5 h, 10 µM of C[C@]1(CO)[C@H]2Cc3sc(-c4ccccc4)nc3[C@@H](CC(=O)O)[C@]2(C)CC[C@H]1O [CBK289572] under 90%?
output: satisfied

input: Field: below-cutoff. Rule: recorded viability at 28.5 h, 10 µM strictly less than 90%. Subject: OC1(c2cccnc2F)CCN(Cc2cc(F)cc(F)c2)CC1 [CBK285375]
output: satisfied

input: Find out if reported viability at 28.5 h, 10 µM for Cc1nc(C2CN(Cc3c(Cl)ccc4cccnc34)CCO2)no1 (stereo not shown) [CBK305317] is less than 90%
output: satisfied

input: Strictly below 90% in viability at 28.5 h, 10 µM? CCOC(=O)COc1ccc(/C=C2/SC(=S)N(c3cccc(C(=O)O)c3)C2=O)cc1 [CBK265632]
output: not satisfied

input: Check if viability at 28.5 h, 10 µM falls below 90% for COC(=O)c1cccc2c1ncc1c(=O)nc(N)sc12 [CBK291214] .
output: not satisfied

input: Lab note: viability at 28.5 h, 10 µM threshold 90%. Does this compound come in strictly under it? O=C1NCCCCC1N1CCS(=O)(=O)CC1 (stereo not shown) [CBK017083]
output: not satisfied

----------
Please provide measured viability at 28.5 h, 10 µM for the entries that follow.
Assay Text: in vitro
Condition Parameters: human, hela cells, % viability
Answers are plain numbers, in %.

Record excerpt, results attached:
* COc1ccc([C@@]23CC[C@@H](NC(=O)Nc4ccc(-c5csnn5)cc4)C[C@@H]2N(C)CC3)cc1OC [CBK051163T] | 95.3
* COc1ccc(CN2CCN(c3nccnc3OC)CC2)cc1 | 89.6
* CCOC(=O)c1[nH]c2ccccc2c1NC(C)=O | 92.7
* CC(=O)NC[C@H]1CN(c2ccc(C#N)c(C)c2)C(=O)O1 | 107
* NS(=O)(=O)c1ccc(S(=O)(=O)NCCc2c[nH]c3ccccc23)cc1 | 82.2
* CC(C)Nc1nc2ccccc2nc1SCCC(=O)O | 106
* CCN(CC(=O)NCc1cccnc1)S(=O)(=O)c1ccc(F)cc1 | 85.3
* O=C(NC1CCCc2c1cnn2-c1ccc(F)cc1)c1ccncc1 (centres unmarked) | 91.6

Please look at the items below and tell me viability at 28.5 h, 10 µM for each one, in order.
1. Cc1cc(-c2cc(=O)n(Cc3ccccc3C)nc2-c2ccco2)on1
2. COc1ccc(C(NC(=O)C2CCN(C(=O)Oc3ccccc3)CC2)c2ccccc2C)cn1 (centres unmarked)
3. COC(=O)c1c(NC(=S)Nc2ccc(Br)cn2)sc2c1CCC2
4. CC(=O)Nc1ccc(-c2nc(-c3ccc(-c4ccccc4)cc3)c(-c3ccc(-c4ccccc4)cc3)[nH]2)cc1
5. Cc1nccn1CCCNC(=O)c1cccc(N2CCCCC2)c1

output:
1. 96.7
2. 91.1
3. 92.9
4. 87.3
5. 91.4

Each of the following entries comes with a recorded value; kindly state viability at 28.5 h, 10 µM for each.
1. COc1ccc([C@@]23CC[C@@H](NC(=O)Nc4ccc5ccccc5c4)C[C@@H]2N(C)CC3)cc1OC [CBK034181T]
2. CCN(CC(=O)NC(C)C)Cc1csc(-c2ccc(F)cc2)n1

output:
1. 102
2. 117

Please supply viability at 28.5 h, 10 µM for each of the following items, keeping them in order.
1. Cn1c(=O)c2c(ncn2CC(=O)Nc2ccccc2C#N)n(C)c1=O
2. COc1ccc(N2CCN(c3cncc(-c4ccc(C(N)=O)cc4)n3)CC2)cc1OC

output:
1: 89.6; 2: 93.8

# map each compound to its viability at 28.5 h, 10 µM
1. O=C(/C=C/c1ccc2c(c1)OCO2)N1CCN(C(=O)c2ccco2)CC1
2. CCOc1ccc(S(=O)(=O)N2CCCN(CC(C)C)CC2)c2cccnc12
3. COc1ccc(Nc2cc(-c3ccc(CNC(=O)OC(C)(C)C)cc3)ncn2)c(OC)c1
4. CCc1nn(Cc2ccccn2)c(=O)c2cc3sc(C)cc3n12
5. CC(C)C[C@H]1NC(=O)C2(C/C=C/C[C@@H]3COCC[C@@H]3NC1=O)CCN(C(=O)[C@@H](N)Cc1c[nH]c3ccccc13)CC2

output:
95.1
97
90.8
77
109

Please look at the items below and tell me viability at 28.5 h, 10 µM for each one, in order.
1. O=c1[nH]c(/C=C\c2cccc(OCCOc3ccccc3)c2)c([N+](=O)[O-])c(=O)[nH]1
2. CCn1c2ccccc2c2cc(CN3CCN(Cc4c[nH]c5ccccc45)CC3)ccc21

output:
105
89.3

// batch mode: one viability at 28.5 h, 10 µM value per listed entry
1. O=C(CSc1nnc(Cc2ccccc2)o1)N1c2ccccc2Sc2ccccc21
2. COc1ccc(-c2ccc(OC)cc2C(=O)Nc2cccc(-n3cccn3)c2)cc1
3. Cc1nn(-c2ncccn2)c2c1C(C(=O)c1ccccc1)CC(=O)N2 (centres unmarked)
4. O=c1[nH]nc2ccc(S(=O)(=O)N3CCCC3)cn12
5. FC(F)(F)c1ccc(SCc2ccc(Cl)c(Cl)c2)nc1

output:
[96.4, 94.6, 93.2, 80.5, 95.3]
